meta.source: ChEMBL document CHEMBL1129711

# system.name: Integrin alpha-IIb/beta-3 (Homo sapiens, UniProt P05106+P08514)
# assay.protocol: Binding affinity against alpha IIb beta-3 integrin by [125I]-L-692,884 displacement.
# Type: protein-complex assay
Checkbox rule: ED50 lower than 1 nM = MET; ED50 not lower than 1 nM = NOT MET.

compound: CS(=O)(=O)N[C@@H](CNC(=O)c1ccc2c(c1)C(=O)N(CCC1CCNCC1)C2)C(=O)O
label.value: NOT MET
--
compound: CCCCCC(=O)N[C@@H](CNC(=O)c1ccc2c(c1)C(=O)N(CCC1CCNCC1)C2)C(=O)O
label.value: NOT MET
--
compound: CCCCNC(=O)N[C@@H](CNC(=O)c1ccc2c(c1)C(=O)N(CCC1CCNCC1)C2)C(=O)O
label.value: NOT MET
--
compound: O=C(NCc1ccccc1)N[C@@H](CNC(=O)c1ccc2c(c1)C(=O)N(CCC1CCNCC1)C2)C(=O)O
label.value: NOT MET
--
compound: O=C(O)c1ccc(S(=O)(=O)N[C@@H](CNC(=O)c2ccc3c(c2)C(=O)N(CCC2CCNCC2)C3)C(=O)O)cc1
label.value: NOT MET
--
compound: CCCCS(=O)(=O)N[C@@H](CNC(=O)c1ccc2c(c1)C(=O)N(CCC1CCNCC1)C2)C(=O)O (stereo in doubt; 13)
label.value: NOT MET
--
compound: CCCCCS(=O)(=O)N[C@@H](CNC(=O)c1ccc2c(c1)C(=O)N(CCC1CCNCC1)C2)C(=O)O
label.value: MET
--
compound: O=C(NC[C@H](NS(=O)(=O)c1ccccc1C(=O)O)C(=O)O)c1ccc2c(c1)C(=O)N(CCC1CCNCC1)C2
label.value: MET
